tested on: HUVECs; test: Tube formation (tubulogenesis) assay in HUVECs, 18 h; type: cell-based, human; details: Homo sapiens, HUVEC, 18 h, HUVECs, 0.10 µM, 0.00 µM = 100.00, read-out: huvec.ttl.18hr
Where a name gives a salt, the structure may show the parent alone.
Please provide measured activity at 0.1 µM for the entries that follow.
Give bare numbers, in %.

## Task Can you look up the measured activity at 0.1 µM of O=S(=O)(O)Oc1ccc(-c2ccc(Cl)cc2)cc1 [4'-yl PCB 3 sulfate] for me?
## Result 133

# batch: return activity at 0.1 µM for each of the 3 compounds below
1. Oc1ccc(-c2cccc(Cl)c2)cc1Cl [4-OH PCB11]
2. O=S(=O)(O)Oc1cc(Cl)ccc1-c1ccccc1 [2-yl PCB 3 sulfate]
3. O=S(=O)(O)Oc1cc(-c2ccccc2)ccc1Cl [3-yl PCB 3 sulfate]

## Result
[125, 147, 137]

## Task Can you look up the measured activity at 0.1 µM of Oc1cc(Cl)c(-c2cc(Cl)ccc2Cl)cc1Cl [4-OH PCB52] for me?
## Result 98.2
